Target: p53-MDM2 interaction (human MDM2 protein, amino acids 2-188) (Homo sapiens, UniProt Q00987)
Construct: human MDM2 protein (amino acids 2-188); made in house
Sequence (Q00987 2-188): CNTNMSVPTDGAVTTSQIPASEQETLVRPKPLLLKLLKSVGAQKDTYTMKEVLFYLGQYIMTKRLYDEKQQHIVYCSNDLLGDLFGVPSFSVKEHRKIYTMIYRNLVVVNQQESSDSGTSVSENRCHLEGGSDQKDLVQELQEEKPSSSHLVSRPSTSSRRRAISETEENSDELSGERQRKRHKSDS
Assay: p53-MDM2 Assay 1: TR-FRET inhibition of p53-MDM2 interaction
Type: binding
Settings: 1.25 nM MDM2-biotinylated, 10 nM Cy5-p53 peptide
Provide the recorded pIC50 for the entries that follow.
Numbers only, as −log10 of the molar value.

Record COc1ccccc1-n1nc2c(c1C(C)C)C(c1ccc(Cl)cc1)N(c1cc(Cl)c(=O)n(CCO)c1)C(=O)N2 (stereo not shown) [Example 18] . Reported pIC50: 8.80

Give pIC50 for each listed item.
1. COc1ccccc1-n1nc2c(c1C(C)C)[C@H](c1ccc(Cl)cc1C)N(c1cccc(Cl)c1F)C(=O)N2 [Example 6]
2. COc1ccccc1-n1nc2c(c1C(C)C)C(c1ccc(Cl)cc1C)N(c1cc(Cl)ccc1C)C(=O)N2 (stereo not shown) [Example 10]
3. COCCn1cc(N2C(=O)Nc3nn(-c4ccccc4OC)c(C(C)C)c3C2c2ccc(Cl)cc2C)cc(Cl)c1=O (stereo not shown) [Example 19]
4. Cc1cc(Cl)ccc1C1c2c(nn(Cc3ccccc3)c2C(C)C)NC(=O)N1c1cccc(Cl)c1F (stereo not shown) [Example 1]
5. COc1ccccc1-n1nc2c(c1C(C)C)C(c1ccc(Cl)cc1C)N(c1cc(Cl)c(=O)n(C)c1)C(=O)N2 (stereo not shown) [Example 15]
6. Cc1cc(Cl)ccc1C1c2c(nn(Cc3ccccn3)c2C(C)C)NC(=O)N1c1cccc(Cl)c1F (stereo not shown) [Example 8]

Data returned:
1. 9.15
2. 8.96
3. 8.89
4. 8.74
5. 8.84
6. 8.49
